Reference source for all entries: paper PMC12527977

Target: DPP-IV (Homo sapiens, UniProt P27487)
Sequence (P27487 whole entry): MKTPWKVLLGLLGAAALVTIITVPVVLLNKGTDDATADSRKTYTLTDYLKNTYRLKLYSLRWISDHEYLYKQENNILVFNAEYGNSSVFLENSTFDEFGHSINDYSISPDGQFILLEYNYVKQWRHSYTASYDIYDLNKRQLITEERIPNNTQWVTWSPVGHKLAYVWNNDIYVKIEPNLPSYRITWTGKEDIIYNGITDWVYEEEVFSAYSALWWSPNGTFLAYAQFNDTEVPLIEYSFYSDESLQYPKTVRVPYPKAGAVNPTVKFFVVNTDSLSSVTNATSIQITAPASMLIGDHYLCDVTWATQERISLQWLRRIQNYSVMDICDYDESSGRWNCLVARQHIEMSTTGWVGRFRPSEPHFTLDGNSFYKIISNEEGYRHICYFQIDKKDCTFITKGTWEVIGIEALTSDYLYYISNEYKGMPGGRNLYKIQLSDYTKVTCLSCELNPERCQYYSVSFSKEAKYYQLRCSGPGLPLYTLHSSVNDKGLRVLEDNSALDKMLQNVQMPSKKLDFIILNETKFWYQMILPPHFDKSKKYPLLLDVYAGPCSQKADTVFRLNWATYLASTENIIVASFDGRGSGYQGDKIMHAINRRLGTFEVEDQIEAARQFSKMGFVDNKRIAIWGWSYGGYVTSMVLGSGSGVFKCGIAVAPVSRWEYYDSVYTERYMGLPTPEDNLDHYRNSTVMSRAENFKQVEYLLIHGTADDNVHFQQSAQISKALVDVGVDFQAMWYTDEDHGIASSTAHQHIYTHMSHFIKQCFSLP
Assay: DPP-IV inhibitory activity of peptides (DPP-IV-Glo Protease Assay Kit)
Format: biochemical
Design: purchased QiZheng Biotech (Shanghai, China) IBDPP0901
Where no end group is shown, it is not given here.
measurement_type: pIC50
One number for each entry, as −log10 of the molar value.

stdin: Look up pIC50 for this substance: FNVDSE [FNVDSE]
stdout: 1.08

* * *

Experiment: in vitro
Assay type: in vitro ADME
Settings: cells or culture medium, VAMP (%) remaining, 36 h
Where a SMILES comes first, the peptide text is derived from it.
measurement_type: remaining at 36 h, 100 μM (%)
Answers are plain numbers, in %.

stdin: Look up remaining at 36 h, 100 μM for this compound: CSCC[C@H](NC(=O)[C@H](C)NC(=O)[C@@H](N)C(C)C)C(=O)N1CCC[C@H]1C(=O)O [VAMP] (H-VAMP-OH)
stdout: 2.1
